These entries and their values trace back to patent US20220143214A1.

Target: LY6C1 (Ly6c1, C57BL/6J mouse, splice variant 1) (mouse (C57BL/6J))
Assay: AAV library bound to Ly6c1-transfected HEK293T cells, NGS
Recorded fold enrichment (log2) determines the group label, using b0 (below -0.3 log2), b1 (-0.3 log2 to below 3 log2), b2 (3 log2 or more)

substance="AAV9 K449R 7-mer variant TQQGYSS" categorylabel=b2
substance="AAV9 K449R 7-mer variant DKQKPFL" categorylabel=b1
substance="AAV9 K449R 7-mer variant QNARPFV" categorylabel=b1
substance="AAV9 K449R 7-mer variant ESTRPFK" categorylabel=b1
substance="AAV9 K449R 7-mer variant LAHTYSS" categorylabel=b2
substance="AAV9 K449R 7-mer variant GNENFSS" categorylabel=b2
substance="AAV9 K449R 7-mer variant IDRGYSV" categorylabel=b2
substance="AAV9 K449R 7-mer variant TTMKPFN" categorylabel=b0
substance="AAV9 K449R 7-mer variant TRDLPFK" categorylabel=b0
substance="AAV9 K449R 7-mer variant TSMKPFL" categorylabel=b0
